Reference for the values: PubChem BioAssay (NCI)

# Test system: ACHN renal
# assay.notes: NCI tumour cell line growth inhibition, 48 h; in the data active = GI50 below about 0.43 µM; inactive = the rest
Pick one: active, inactive

Illustrative cases are given below, each with its answer.
O=C1c2ccc([N+](=O)[O-])cc2-c2c1c1ccccc1c(=O)n2CCCNCCCNCCCn1c2c(c3ccc([N+](=O)[O-])cc3c1=O)C(=O)c1ccccc1-2    inactive
O=[N+]([O-])c1ccc(S(=O)Cc2ccccc2)c([N+](=O)[O-])c1 (centres undefined)    inactive
CC1(C)CC[C@H](Nc2ncc(C(F)(F)F)c(-c3c[nH]c4c(P(C)(C)=O)c(C#N)ccc34)n2)CN1    active
COc1ccc2c(c1)C(=O)c1c-2n(CCCN=[N+]=[N-])c(=O)c2cc(N(C)C)ccc12    inactive

Assay outcome for `Cc1cc(/C=C\c2ccc3ccccc3[n+]2C)c(O)c2ncccc12` : what was it?
inactive

Assay outcome for `CN(C)c1ccc([O-])cc1.CN(C)c1ccc([O-])cc1.CN(C)c1ccc([O-])cc1.CN(C)c1ccc([O-])cc1.[Ti+4]` : what was it?
inactive

Assay outcome for `CCCc1c(CC)c(=N)c2ccccc2n1C` : what was it?
inactive

Assay outcome for `COc1cc(/C=C2\CCC/C(=C\c3cc(OC)c(O)c(OC)c3)C2=O)cc(OC)c1O` : what was it?
inactive

Assay outcome for `COc1cc2c(c(OC)c1OC)-c1ccc(N)c(=O)cc1[C@@H](NC(C)=O)CC2` : what was it?
active

----------
# Test system: ACHN renal
# assay.notes: NCI tumour cell line growth inhibition, 48 h
observed.property: TGI

A selection of reference data follows.
O=C(NCc1cccc(C(F)(F)F)c1)c1cc2sccc2nc1C(F)(F)F    > 100 µM
NC1CCCCC1.[O]=[Ge].[O]=[Ge].[O]=[Ge][OH].[O]=[Ge][OH]    > 100 µM
Cc1ccc(S(=O)(=O)NCCNC2=CC(=O)c3nc4ccccc4c4ccnc2c34)cc1    97 µM
COc1cc2c(cc1OCCCC(=O)Nc1cc(C(=O)Nc3cc(C(=O)Nc4cc(C(=O)NCCCN(C)C)n(C)n4)n(C)n3)n(C)n1)N=CC1CCCN1C2=O (stereo unspecified)    38.4 µM
CC1(C)OCC(C(O)C2OC(C)(C)OC2C=O)O1 (stereo unspecified)    > 100 µM

API: the following record is the query input.
Tested on ACHN renal: `O=[N+]([O-])c1ccc2nc(-c3ccccn3)c(-c3ccccn3)nc2c1` . Observed TGI: > 100 µM

----------
Listed here: items and their measured TGI.
# System: SK-MEL-28 melanoma
# assay.notes: NCI tumour cell line growth inhibition, 48 h

A selection of reference data follows.
COC1OC(Cc2nnc(C)o2)C(OCc2ccccc2)C(OCc2ccccc2)C1OCc1ccccc1 (configuration not stated)    45.3 µM
Cc1cc(C)c(P2C(=C(O[Si](C(C)C)(C(C)C)C(C)C)C(C)(C)C)C2(c2ccccc2)c2ccccc2)c(C)c1 (configuration not stated)    > 100 µM
Cc1c(S(C)(=O)=O)c(-c2cc(F)cc(N3CCN(c4ccc(NS(=O)(=O)c5ccc(N[C@H](CCN6CCC(C(=O)OCCCP(=O)(O)O)CC6)CSc6ccccc6)c(S(=O)(=O)C(F)(F)F)c5)cc4)CC3)c2)c(-c2ccc(Cl)cc2)n1C(C)C    > 100 µM
CC(=O)NNc1nc(C)c(C(=O)NNC(=O)C(=O)Nc2c(C)cccc2C)s1    > 100 µM
O=[N+]([O-])c1ccc(S[C@@H]2[C@H]3c4c(-c5ccccc5)[nH]c(-c5ccccc5)c4[C@@H]2C[C@H]3Cl)cc1    > 100 µM

Entry under test: `C[C@@H](O)C(=O)N1[C@@H]2CC3CC[C@]2(CS1(=O)=O)C3(C)C` . Its TGI was > 100 µM

Entry under test: CCCCS(=O)CCC(N)C(=O)O (configuration not stated) . Its TGI was > 100 µM

Entry under test: `COc1ccc(-c2nc3sc(-c4ccc(Cl)cc4)cn3n2)cc1` . Its TGI was > 50 µM

----------
# Tested on: HS 578T breast
# assay.notes: NCI tumour cell line growth inhibition, 48 h
Listed here: items and their measured GI50.

FC(F)(F)c1cc(-c2nnc3n2N=C(N2CCCC2)CS3)cc(C(F)(F)F)c1    17.9 µM
O=C(Nc1ccc(F)cc1)c1ccc(NC2=C(Cl)C(=O)N(Cc3ccccc3)C2=O)cc1    13.2 µM
CCN(CC)CCNc1ccc([N+](=O)[O-])c2sc3ccccc3c(=O)c12    2.17 µM
COc1ccccc1/C=C/[N+](=O)[O-]    2.79 µM
CN1CCN(c2ccc(NC(=O)c3nc4ccc5[nH]ncc5c4c4c3CCCC4)cc2C(F)(F)F)CC1    5.99 µM
O=Nc1c(-c2c(O)[nH]c3ccc([N+](=O)[O-])cc23)[nH]c2ccc(O)cc12    0.345 µM
C=CCN(/C=C1/C(=O)O[C@H](COC)[C@@]2(C)C1=C(O)C(=O)C1=C2[C@H](OC(C)=O)C[C@]2(C)C(=O)CC[C@@H]12)CC=C    0.128 µM

Entry under test: `CCC(=O)O[C@H]1CC[C@H]2[C@@H]3CC[C@H]4CC(=O)[C@H](C)C[C@]4(C)[C@H]3CC[C@]12C` . Its GI50 was 44 µM

----------
# System: CAKI-1 renal
# assay.notes: NCI tumour cell line growth inhibition, 48 h
observed.property: TGI

Nc1cccc2c1C(=O)c1cccc(N)c1C2=O    > 100 µM
CCCCS(=O)CCC(N)C(=O)O (stereo not drawn)    > 100 µM
CCOC(=O)c1c(CN2CCNCC2)nc2ccccc2c1-c1ccccc1    25.7 µM
CC1(C)C(=O)C(C)(C)C1=NN    > 100 µM
OC1c2ccccc2C2(O)C1C(c1ccccc1)C(c1ccccc1)C2(O)c1ccccc1 (stereo not drawn)    > 100 µM
OCC1OC(n2cnc3cncnc32)C(O)C1O (stereo not drawn)    2.68 µM
C/C(=N\NC(=S)N1CCCCC1)c1cccc(C)n1    12.4 µM
NC(=S)N/N=C\c1ccc(OCc2cccc(COc3ccc(/C=N/NC(N)=S)cc3)n2)cc1    > 100 µM
CC(=O)O[C@@H]1C[C@@]23C[C@@]24CC[C@H](OC2OCC(O)C(O)C2O)C(C)(C)[C@@H]4CC=C3[C@]2(C)C[C@@H]3OC4(C[C@@H](C)[C@@H]3[C@@]12C)OC(O)[C@@]1(C)O[C@@H]41 (stereo partly drawn)    > 100 µM
C=CCN(/C=C1/C(=O)O[C@H](COC)[C@@]2(C)C1=C(O)C(=O)C1=C2[C@H](OC(C)=O)C[C@]2(C)C(=O)CC[C@@H]12)CC=C    > 10 µM

Entry under test: `COc1ccc2c(c1)C(N)=C(c1ccccc1)C2=O` . Its TGI was > 100 µM

Entry under test: `CN(C)c1ccc([O-])cc1.CN(C)c1ccc([O-])cc1.CN(C)c1ccc([O-])cc1.CN(C)c1ccc([O-])cc1.[Ti+4]` . Its TGI was > 100 µM

Entry under test: COc1ccccc1/C=C1\CCC(CCN(C)C)(C2=CCCC2)C1=O (stereo not drawn) . Its TGI was 57.2 µM

----------
Listed here: items and their measured TGI.
# Tested on: OVCAR-3 ovarian
# assay.notes: NCI tumour cell line growth inhibition, 48 h

A selection of reference data follows.
Cc1cccc2c1[nH]c1[nH]c(=O)[nH]c(=O)c12    > 100 µM
NC(=S)N/N=C\c1ccc(OCc2cccc(COc3ccc(/C=N/NC(N)=S)cc3)n2)cc1    > 100 µM
Cn1nc2n(c1=O)CCCN2    > 100 µM

API: the following record is the query input.
Entry under test: `C[C@@H](O)C(=O)N1[C@@H]2CC3CC[C@]2(CS1(=O)=O)C3(C)C` . Its TGI was > 100 µM

----------
# System: MDA-MB-435
# assay.notes: NCI tumour cell line growth inhibition, 48 h
Listed here: items and their measured TGI.

A selection of reference data follows.
Cc1cc(C)c(P2C(=C(O[Si](C(C)C)(C(C)C)C(C)C)C(C)(C)C)C2(c2ccccc2)c2ccccc2)c(C)c1 (centres undefined)    > 100 µM
Cc1cc(=O)n2nc(SCc3ccccc3)sc2n1    > 100 µM
CC1OC2=N[C@@H]1C(=O)N[C@@H](C(C)C)C1=N[C@H](C(=O)N[C@@H](C(C)C)C3=N[C@H](C(=O)N[C@@H](C(C)C)C4=N[C@H](C(=O)N[C@H]2C(C)C)C(C)O4)C(C)O3)C(C)O1 (some centres undefined)    > 10 µM

Entry under test: `COc1nc(N(C)C)nc2c1n(C)c[n+]2C` . Its TGI was > 100 µM

----------
# Test system: HL-60(TB) leukemia
# assay.notes: NCI tumour cell line growth inhibition, 48 h
Listed here: items and their measured TGI.

A selection of reference data follows.
CC1CCP(=O)(c2ccccc2)c2ccccc21 (stereo not drawn)    41.1 µM
CN(C)c1ccc([O-])cc1.CN(C)c1ccc([O-])cc1.CN(C)c1ccc([O-])cc1.CN(C)c1ccc([O-])cc1.[Ti+4]    > 100 µM
COc1ccc(NC(=O)C(=O)Cc2nc3ccc([N+](=O)[O-])cc3[nH]c2=O)c(OC)c1    > 100 µM
O=C(CSCC(=O)N/N=C/c1cccs1)N/N=C/c1cccs1    > 100 µM
OC1c2ccccc2C2(O)C1C(c1ccccc1)C(c1ccccc1)C2(O)c1ccccc1 (stereo not drawn)    31.9 µM

Tested on HL-60(TB) leukemia: COC(=O)C(C(=O)C(=O)Nc1ccc(C(F)(F)F)cc1[N+](=O)[O-])c1csc(-n2nc(-c3ccccc3)cc2-c2ccccc2)n1 (stereo not drawn) . Observed TGI: > 100 µM

Tested on HL-60(TB) leukemia: CCCCS(=O)CCC(N)C(=O)O (stereo not drawn) . Observed TGI: > 100 µM

Tested on HL-60(TB) leukemia: `CCCCc1c2c(nc3c1CCc1cc4cc5c(nc4nc1-3)-c1nc3c(c(CCCC)c1CC5)CCCC3)CCCC2` . Observed TGI: > 100 µM
